Values compiled from patent US20130210846A1.

System: HCT116
Test: Proliferation assay HCT116
Format: cell-based
Details: Homo sapiens, HCT-116, 96 h; HCT116, colon/rectum carcinoma; 4 days, crystal violet
READOUT_KIND: IC50 (nM)

C[C@@H](O)[C@@H](C)Oc1nc(Nc2ccc(S(=N)(=O)C3CC3)cc2)ncc1C(F)(F)F (mixture of isomers) :: 18
C[C@@H](O)[C@@H](C)Nc1nc(Nc2ccc(S(C)(=N)=O)cc2)ncc1C(F)(F)F (single isomer, unassigned) :: 17
C[C@@H](O)[C@@H](C)Oc1nc(Nc2ccc(S(C)(=N)=O)cc2)ncc1C(F)(F)F (single isomer, unassigned) :: 16
CCS(=N)(=O)c1ccc(Nc2ncc(C(F)(F)F)c(N[C@H](C)[C@@H](C)O)n2)cc1 (mixture of isomers) :: 24
CCS(=N)(=O)c1ccc(Nc2ncc(C(F)(F)F)c(N[C@H](C)C(C)(C)O)n2)cc1 (single isomer, unassigned) :: 17
C[C@@H](Nc1nc(Nc2ccc(S(=N)(=O)C3CC3)cc2)ncc1C(F)(F)F)C(C)(C)O (mixture of isomers) :: 28
C[C@@H](O)[C@@H](C)Nc1nc(Nc2ccc(S(=N)(=O)C3CC3)cc2)ncc1C(F)(F)F (mixture of isomers) :: 20

----------
Tested on: OVCAR-8
Experiment: Proliferation assay OVCAR-8
Assay type: cell-based
Details: Homo sapiens, 96 h; OVCAR-8, ovarial carcinoma; 4 days, crystal violet
READOUT_KIND: IC50 (µM)

C[C@@H](O)[C@@H](C)Oc1nc(Nc2ccc(S(=N)(=O)C3CC3)cc2)ncc1C(F)(F)F (mixture of isomers) [Example 1-SI-2] :: 0.012
C[C@@H](O)[C@@H](C)Oc1nc(Nc2ccc(S(C)(=N)=O)cc2)ncc1C(F)(F)F (single isomer, unassigned) [Example 2-SI-2] :: 0.014

----------
Target: CDK1/CycB (Homo sapiens)
Sequence (P06493 whole entry): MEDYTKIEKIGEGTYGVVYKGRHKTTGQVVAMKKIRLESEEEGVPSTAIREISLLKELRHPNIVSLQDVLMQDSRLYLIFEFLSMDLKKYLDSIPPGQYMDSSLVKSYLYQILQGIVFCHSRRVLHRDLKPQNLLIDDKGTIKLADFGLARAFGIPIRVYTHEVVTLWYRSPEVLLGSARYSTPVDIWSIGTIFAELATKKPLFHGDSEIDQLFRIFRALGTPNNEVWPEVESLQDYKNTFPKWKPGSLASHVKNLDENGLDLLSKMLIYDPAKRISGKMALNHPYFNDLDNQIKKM
Sequence (P14635 whole entry partner): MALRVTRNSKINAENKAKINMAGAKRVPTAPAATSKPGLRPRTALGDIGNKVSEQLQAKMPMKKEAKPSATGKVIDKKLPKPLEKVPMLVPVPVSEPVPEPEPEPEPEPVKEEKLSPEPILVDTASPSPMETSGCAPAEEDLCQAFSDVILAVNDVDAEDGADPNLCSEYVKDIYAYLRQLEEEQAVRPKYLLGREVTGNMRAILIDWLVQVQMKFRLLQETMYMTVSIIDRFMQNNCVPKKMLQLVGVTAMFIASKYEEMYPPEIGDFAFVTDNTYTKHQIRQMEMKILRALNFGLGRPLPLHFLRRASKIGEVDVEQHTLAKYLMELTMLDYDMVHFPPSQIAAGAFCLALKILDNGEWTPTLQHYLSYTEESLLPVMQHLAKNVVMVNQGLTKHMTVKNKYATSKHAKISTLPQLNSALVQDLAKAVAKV
Assay: CDK1/CycB kinase assay (Assay 1)
Conditions: 0.5 μM ATP, histon IIIS, 10 min 22° C.; read-out: CDK1/CycB (Assay 1) Concentration for half-maximal inhibition of the enzyme activity, IC50
READOUT_KIND: IC50 (nM)

C[C@@H](O)[C@@H](C)Nc1nc(Nc2ccc(S(C)(=N)=O)cc2)ncc1C(F)(F)F (single isomer, unassigned) [Example 8-SI-2] :: 3
C[C@@H](O)[C@@H](C)Nc1nc(Nc2ccc(S(=N)(=O)C3CC3)cc2)ncc1C(F)(F)F (mixture of isomers) :: 6

[I] CCS(=N)(=O)c1ccc(Nc2ncc(C(F)(F)F)c(N[C@H](C)C(C)(C)O)n2)cc1 (single isomer, unassigned) [Example 7-SI-2]
[II] C[C@@H](O)[C@@H](C)Oc1nc(Nc2ccc(S(C)(=N)=O)cc2)ncc1C(F)(F)F (single isomer, unassigned) [Example 2-SI-2]
[III] C[C@@H](Nc1nc(Nc2ccc(S(=N)(=O)C3CC3)cc2)ncc1C(F)(F)F)C(C)(C)O (mixture of isomers) [Example 5-SI-1]
**Q:** Reorder the items by IC50, least to greatest. Return the labels ranked in the requested order, please.
**A:** II, I, III
(II: 4 nM, I: 7 nM, III: 25 nM)
